# protocol: Cytotoxicity against mouse CT26 cells incubated for 48 hrs by CCK-8 assay
# Assay type: toxicity, cell-based
property_label: IC50 at 48 h (µM)
Numbers only, in µM.

| smiles_text | property_label | observed_result |
| --- | --- | --- |
| O=C(Cc1ccc(O)cc1)Nc1nnc(CCCNc2nonc2/C(=N\O)Nc2ccc(F)c(Br)c2)s1 | IC50 at 48 h | 12.4 |

Please examine the following record next.
Summary for this compound, NS(=O)(=O)NCCNc1nonc1C(=NO)Nc1ccc(F)c(Br)c1 : IC50 at 48 h is 1.49

====

# measured_target: Indoleamine 2,3-dioxygenase 1 (Homo sapiens, UniProt P14902)
# Sequence (P14902 whole entry): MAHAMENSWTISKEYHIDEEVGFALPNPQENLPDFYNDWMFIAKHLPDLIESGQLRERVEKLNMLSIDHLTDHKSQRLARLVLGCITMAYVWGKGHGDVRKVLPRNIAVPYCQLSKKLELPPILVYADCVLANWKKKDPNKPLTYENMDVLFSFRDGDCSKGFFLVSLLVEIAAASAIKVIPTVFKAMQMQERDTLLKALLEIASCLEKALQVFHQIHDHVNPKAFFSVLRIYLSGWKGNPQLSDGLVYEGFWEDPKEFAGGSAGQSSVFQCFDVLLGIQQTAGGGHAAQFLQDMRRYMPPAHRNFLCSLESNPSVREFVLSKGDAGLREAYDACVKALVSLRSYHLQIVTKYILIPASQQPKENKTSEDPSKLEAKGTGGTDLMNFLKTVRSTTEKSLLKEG
# protocol: Inhibition of IDO1 in human HCT-116 cells using L-Tryptophan as substrate incubated for 24 hrs by microplate reader analysis
# Format: cell-based
property_label: EC50 (µM)
One number for each entry, in µM.

Summary for this compound, O=C(Cc1ccc(O)cc1)Nc1nnc(CCCNc2nonc2/C(=N\O)Nc2ccc(F)c(Br)c2)s1 : EC50 is 34.1

====

# measured_target: Indoleamine 2,3-dioxygenase 2 (Homo sapiens)
# Sequence (Q6ZQW0 whole entry): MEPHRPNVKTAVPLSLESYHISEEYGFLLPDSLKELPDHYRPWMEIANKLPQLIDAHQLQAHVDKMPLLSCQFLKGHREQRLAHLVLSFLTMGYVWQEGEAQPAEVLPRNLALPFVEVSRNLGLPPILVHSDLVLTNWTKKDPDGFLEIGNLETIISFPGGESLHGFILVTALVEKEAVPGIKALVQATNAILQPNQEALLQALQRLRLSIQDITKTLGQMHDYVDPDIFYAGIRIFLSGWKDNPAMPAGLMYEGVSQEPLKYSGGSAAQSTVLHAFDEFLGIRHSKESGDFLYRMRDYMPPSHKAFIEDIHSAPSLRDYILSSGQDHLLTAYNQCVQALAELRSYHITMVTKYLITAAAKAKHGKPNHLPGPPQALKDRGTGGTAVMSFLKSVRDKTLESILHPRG
property_label: IC50 (nM)
Numbers only, in nM.

Summary for this compound, NS(=O)(=O)NCCNc1nonc1C(=NO)Nc1ccc(F)c(Br)c1 : IC50 is 630

====

# Test system: IDO1
# protocol: Selectivity ratio of IC50 for cytotoxicity against human HCT-116 cells to EC50 for inhibition of IDO1 in human HCT-116 cells
# Assay type: cell-based
# settings: read-out: Ratio IC50/EC50
property_label: selectivity ratio
Numbers only.

Bench note, IDO1: O=C(Cc1ccc(O)cc1)Nc1nnc(CCCNc2nonc2/C(=N\O)Nc2ccc(F)c(Br)c2)s1 , selectivity ratio reads 101

====

# measured_target: Thioredoxin reductase 1, cytoplasmic (Homo sapiens, UniProt Q16881)
# Sequence (Q16881 whole entry): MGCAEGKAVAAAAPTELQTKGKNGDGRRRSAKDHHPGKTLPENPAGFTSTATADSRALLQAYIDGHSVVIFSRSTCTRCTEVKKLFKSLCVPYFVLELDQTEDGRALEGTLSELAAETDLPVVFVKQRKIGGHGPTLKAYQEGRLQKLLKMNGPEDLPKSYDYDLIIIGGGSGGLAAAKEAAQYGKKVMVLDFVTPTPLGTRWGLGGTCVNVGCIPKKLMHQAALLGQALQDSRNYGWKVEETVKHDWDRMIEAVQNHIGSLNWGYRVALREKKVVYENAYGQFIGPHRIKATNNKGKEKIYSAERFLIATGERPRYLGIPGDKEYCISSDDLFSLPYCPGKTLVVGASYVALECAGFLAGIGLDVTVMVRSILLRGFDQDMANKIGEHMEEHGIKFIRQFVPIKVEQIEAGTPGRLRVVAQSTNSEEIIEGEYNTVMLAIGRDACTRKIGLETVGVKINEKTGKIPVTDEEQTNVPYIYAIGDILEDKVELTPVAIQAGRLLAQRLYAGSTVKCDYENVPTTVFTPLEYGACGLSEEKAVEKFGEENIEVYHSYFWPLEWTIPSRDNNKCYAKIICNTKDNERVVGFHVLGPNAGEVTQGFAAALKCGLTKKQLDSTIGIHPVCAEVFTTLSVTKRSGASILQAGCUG
# protocol: Inhibition of TrxR1 in human HCT-116 cells incubated for 24 hrs
# Assay type: cell-based
property_label: pEC50
Answers are plain numbers, as −log10 of the molar value.

Summary for this compound, O=C(Cc1ccc(O)cc1)Nc1nnc(CCCNc2nonc2/C(=N\O)Nc2ccc(F)c(Br)c2)s1 : pEC50 is 5.50

====

# Test system: IDO1
# protocol: Selectivity ratio of IC50 for cytotoxicity against mouse CT26 cells to EC50 for inhibition of IDO1 in mouse CT26 cells
# Format: cell-based
# settings: read-out: Ratio IC50/EC50
property_label: selectivity ratio
Numbers only.

Bench note, IDO1: O=C(Cc1ccc(O)cc1)Nc1nnc(CCCNc2nonc2/C(=N\O)Nc2ccc(F)c(Br)c2)s1 , selectivity ratio reads 5.35

====

# Test system: IDO1
# protocol: Selectivity ratio of IC50 for cytotoxicity against human HeLa cells to EC50 for inhibition of IDO1 in human HeLa cells
# Format: cell-based
# settings: read-out: Ratio IC50/EC50
property_label: selectivity ratio

Summary for this compound, O=C(Cc1ccc(O)cc1)Nc1nnc(CCCNc2nonc2/C(=N\O)Nc2ccc(F)c(Br)c2)s1 : selectivity ratio is 224

====

# measured_target: Thioredoxin reductase 1, cytoplasmic (Mus musculus, UniProt Q9JMH6)
# Sequence (Q9JMH6 whole entry): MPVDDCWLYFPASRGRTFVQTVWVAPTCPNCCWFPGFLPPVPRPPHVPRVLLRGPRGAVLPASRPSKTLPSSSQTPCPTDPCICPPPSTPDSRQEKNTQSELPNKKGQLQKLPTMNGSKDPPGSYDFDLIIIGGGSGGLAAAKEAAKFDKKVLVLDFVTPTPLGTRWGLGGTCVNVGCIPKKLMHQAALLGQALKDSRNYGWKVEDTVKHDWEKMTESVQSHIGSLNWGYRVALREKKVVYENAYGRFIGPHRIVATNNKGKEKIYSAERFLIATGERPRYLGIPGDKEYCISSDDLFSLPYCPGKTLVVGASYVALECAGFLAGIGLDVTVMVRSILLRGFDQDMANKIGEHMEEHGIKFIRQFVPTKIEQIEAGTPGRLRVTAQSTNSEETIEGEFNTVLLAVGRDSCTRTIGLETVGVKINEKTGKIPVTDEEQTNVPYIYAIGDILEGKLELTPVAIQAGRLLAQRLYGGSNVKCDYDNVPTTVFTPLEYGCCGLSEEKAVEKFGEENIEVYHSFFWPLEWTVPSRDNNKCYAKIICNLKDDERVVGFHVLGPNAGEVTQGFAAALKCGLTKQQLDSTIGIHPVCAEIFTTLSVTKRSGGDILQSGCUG
# protocol: Inhibition of TrxR1 in mouse CT26 cells incubated for 24 hrs
property_label: EC50 (µM)
Numbers only, in µM.

Summary for this molecule, O=C(Cc1ccc(O)cc1)Nc1nnc(CCCNc2nonc2/C(=N\O)Nc2ccc(F)c(Br)c2)s1 : EC50 is 25.7

====

# measured_target: UniProt P14902
# protocol: Inhibition of recombinant human IDO1 using L-Trp as substrate incubated for 1 hr
property_label: IC50 (µM)
Numbers only, in µM.

In the examples that follow, each entry is paired with its recorded IC50.
| smiles_text | IC50, µM |
| --- | --- |
| O=C(Cc1ccc(O)cc1)Nc1nnc(CCCNc2nonc2/C(=N\O)NCCc2ccc(F)cc2)s1 | 4.37 |
| O=C(Cc1cccc(OC(F)(F)F)c1)Nc1nnc(CCCNc2nonc2/C(=N\O)Nc2ccc(F)c(Br)c2)s1 | 0.12 |
| O=C(Cc1ccc(O)cc1)Nc1nnc(CCCNc2nonc2/C(=N\O)NCCc2ccc(Cl)cc2)s1 | 10.3 |
| O=C(Cc1cccc(OC(F)(F)F)c1)Nc1nnc(CCCNc2nonc2/C(=N\O)NCCc2ccc(Br)cc2)s1 | 5.58 |

Would you mind giving IC50 for every compound in the list below?
1. O=C(Cc1cccc(OC(F)(F)F)c1)Nc1nnc(CCCNc2nonc2/C(=N\O)NCCc2ccc(Cl)cc2)s1
2. O=C(Cc1ccc(O)cc1)Nc1nnc(CCCNc2nonc2/C(=N\O)Nc2ccc(F)c(Br)c2)s1
3. O=C(Cc1ccccc1)Nc1nnc(CCCNc2nonc2/C(=N\O)NCCc2ccc(Cl)cc2)s1
4. O=C(Cc1ccccc1)Nc1nnc(CCCNc2nonc2/C(=N\O)NCCc2ccc(F)cc2)s1
5. O=C(Cc1ccccc1)Nc1nnc(CCCNc2nonc2/C(=N\O)Nc2ccc(F)c(Br)c2)s1
6. O=C(Cc1ccc(O)cc1)Nc1nnc(CCCNc2nonc2/C(=N\O)NCCc2ccc(Br)cc2)s1

Solution:
1. 17.5
2. 0.05
3. 7.88
4. 13.2
5. 0.06
6. 10.1

====

Kindly state IC50 at 48 h for each of the entries shown.
# protocol: Cytotoxicity against human HCT-116 cells incubated for 48 hrs by CCK-8 assay
# Assay type: toxicity, cell-based
Numbers only, in nM.

| compound | IC50 at 48 h / nM |
| --- | --- |
| O=C(Cc1ccc(O)cc1)Nc1nnc(CCCNc2nonc2/C(=N\O)Nc2ccc(F)c(Br)c2)s1 | 3440 |

Summary for this compound, NS(=O)(=O)NCCNc1nonc1C(=NO)Nc1ccc(F)c(Br)c1 [EPACADOSTAT] : IC50 at 48 h is 260

====

# measured_target: Thioredoxin reductase 3 (Homo sapiens)
# Sequence (Q86VQ6 whole entry): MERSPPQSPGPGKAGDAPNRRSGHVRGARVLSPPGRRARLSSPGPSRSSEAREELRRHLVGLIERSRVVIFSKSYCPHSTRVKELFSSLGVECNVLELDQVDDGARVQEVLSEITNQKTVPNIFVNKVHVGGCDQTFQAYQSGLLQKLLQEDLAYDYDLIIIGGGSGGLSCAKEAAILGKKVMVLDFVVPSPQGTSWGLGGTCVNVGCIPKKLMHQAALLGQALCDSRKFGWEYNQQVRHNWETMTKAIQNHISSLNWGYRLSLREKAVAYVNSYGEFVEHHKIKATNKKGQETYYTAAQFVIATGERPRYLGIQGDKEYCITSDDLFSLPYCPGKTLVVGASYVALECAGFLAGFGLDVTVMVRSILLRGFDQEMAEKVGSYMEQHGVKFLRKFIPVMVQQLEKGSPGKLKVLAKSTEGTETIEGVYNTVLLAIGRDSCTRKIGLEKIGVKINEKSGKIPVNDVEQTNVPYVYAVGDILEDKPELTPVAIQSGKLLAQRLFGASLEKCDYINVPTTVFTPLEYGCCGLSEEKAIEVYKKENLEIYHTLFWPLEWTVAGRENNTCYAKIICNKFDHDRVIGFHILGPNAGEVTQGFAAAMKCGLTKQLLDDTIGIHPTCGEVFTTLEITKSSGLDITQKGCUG
property_label: IC50

Bench note, Thioredoxin reductase 3 (Homo sapiens): O=C(Cc1ccc(O)cc1)Nc1nnc(CCCNc2nonc2/C(=N\O)Nc2ccc(F)c(Br)c2)s1 , IC50 reads > 500 µM

====

# measured_target: UniProt:O89049
# Sequence (O89049 whole entry): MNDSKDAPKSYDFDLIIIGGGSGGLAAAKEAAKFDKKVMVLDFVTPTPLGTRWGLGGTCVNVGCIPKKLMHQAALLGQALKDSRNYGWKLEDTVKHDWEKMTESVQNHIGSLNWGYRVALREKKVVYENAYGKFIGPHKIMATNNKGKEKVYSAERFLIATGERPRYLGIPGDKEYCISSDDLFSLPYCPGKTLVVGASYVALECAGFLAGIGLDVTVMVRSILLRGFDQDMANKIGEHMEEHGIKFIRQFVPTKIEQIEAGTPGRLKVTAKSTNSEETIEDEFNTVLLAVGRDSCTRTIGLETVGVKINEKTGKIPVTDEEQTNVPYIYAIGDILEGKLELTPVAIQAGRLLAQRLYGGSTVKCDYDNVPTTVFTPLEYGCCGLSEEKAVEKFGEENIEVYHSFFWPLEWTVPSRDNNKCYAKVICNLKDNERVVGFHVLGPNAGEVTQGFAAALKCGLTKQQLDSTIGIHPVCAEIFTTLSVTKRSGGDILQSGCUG
# protocol: Inhibition of recombinant rat TrxR1 incubated for 1 hr in presence of NADPH by microplate reader analysis
pIC50: −log10 of the molar value.
Assign 1.0 to entries whose pIC50 meets or exceeds 5; assign 0.0 to the rest.

Consider the following illustrative entries.
| smiles_text | measured_target | label_value |
| --- | --- | --- |
| O=C(Cc1ccc(O)cc1)Nc1nnc(CCCNc2nonc2/C(=N\O)Nc2ccc(F)c(Br)c2)s1 | UniProt:O89049 | 1.0 |
| O=C(Cc1ccccc1)Nc1nnc(CCCNc2nonc2/C(=N\O)NCCc2ccc(F)cc2)s1 | UniProt:O89049 | 0.0 |
| O=C(Cc1ccccc1)Nc1nnc(CCCNc2nonc2/C(=N\O)Nc2ccc(F)c(Br)c2)s1 | UniProt:O89049 | 1.0 |
| O=C(Cc1cccc(OC(F)(F)F)c1)Nc1nnc(CCCNc2nonc2/C(=N\O)Nc2ccc(F)c(Br)c2)s1 | UniProt:O89049 | 1.0 |
| O=C(Cc1ccc(O)cc1)Nc1nnc(CCCNc2nonc2/C(=N\O)NCCc2ccc(Br)cc2)s1 | UniProt:O89049 | 0.0 |

Exercise: hey, is pIC50 for this one >= 5? O=C(Cc1ccccc1)Nc1nnc(CCCNc2nonc2/C(=N\O)NCCc2ccc(Cl)cc2)s1
Solution: 1.0

Exercise: hey, is pIC50 for this one >= 5? O=C(Cc1ccc(O)cc1)Nc1nnc(CCCNc2nonc2/C(=N\O)NCCc2ccc(Cl)cc2)s1
Solution: 1.0
